Molecular target: T1, 4H2859-bN
T1 chain: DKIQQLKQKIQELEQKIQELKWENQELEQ
Test: two-hybrid library CCNG1;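 note: natural log of median RNA to DNA barcode read ratio; higher means stronger binding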
Reported interaction score values for a set of binders

Some solved cases for reference:
DKIQQLEQKNQELEQEIQELKWENQELKQ [4H2444-bN] = 0.194
DKIQQLKQKIQELEQKIQELKWENQELEQ [4H2859-bN] = 0.927

What the record says about DKIQQLEQENQELEQKNQELKWEIQELEQ [4H2233-bN] : interaction score is -0.431

What the record says about DEIQQLEQENQELEQKIQELEWKIQELKQ [4H166-bN] : interaction score is 0.54
